Tested on: HCC 2998
Experiment: NCI tumour cell line growth inhibition, 48 h
Calls of active or inactive are those of the source. No stated cut-off is given here; in the data, active = GI50 up to about 1.1 µM and inactive = higher.
Respond with a class label; see active, inactive

compound | assigned.category
O=CNc1ccc2c(c1)C(=O)c1ccccc1-2 | inactive

Task: Call for entry `CC[P+](C#Cc1ccccc1)(c1ccccc1)c1ccccc1` :
Result: inactive

Task: Call for entry `O=C(/C=C/c1ccc(Cl)c(Cl)c1)c1ccc(F)cc1` :
Result: inactive

---

Test system: SNB-19
Test: NCI tumour cell line growth inhibition, 48 h
Activity calls are given as the source filed them. No stated cut-off is given here; in the data, active = GI50 up to about 1.1 µM and inactive = higher.
For each of the molecules below, state its GI50.

Sample records with GI50:
molecule | GI50
COc1ccc(N2C(=O)C3c4[nH]c5ccc(OC)cc5c4C4CCC(c5ccccc5)CC4C3C2=O)cc1 (stereo not given) | 11.9 µM (inactive)
COC(=O)c1cc(/C=C2\Cc3cc4c(cc3C2=O)CCC4)cc2c1CCC2 | > 100 µM (inactive)
C=C1c2nc3ccccc3n2C=C(c2ccc(Cl)cc2)N1c1ccccc1 | 6.56 µM (inactive)
COc1ccc(-c2cc(Cc3cccs3)c(=O)[nH]n2)cc1 | > 100 µM (inactive)

Then this molecule:
Task: Lookup: GI50 / SNB-19 / `CCOC(=O)Nc1ccc(S(=O)(=O)Nc2ccc(Br)cc2)cc1`
Result: 73.5 µM (inactive)
